Test: self-splicing fitness, log relative to wild type (ln ratio); higher = more splicing; Tetrahymena group I intron in knt gene, E. coli kanamycin selection, DiMSum; sequences stand for … in CUCUCU…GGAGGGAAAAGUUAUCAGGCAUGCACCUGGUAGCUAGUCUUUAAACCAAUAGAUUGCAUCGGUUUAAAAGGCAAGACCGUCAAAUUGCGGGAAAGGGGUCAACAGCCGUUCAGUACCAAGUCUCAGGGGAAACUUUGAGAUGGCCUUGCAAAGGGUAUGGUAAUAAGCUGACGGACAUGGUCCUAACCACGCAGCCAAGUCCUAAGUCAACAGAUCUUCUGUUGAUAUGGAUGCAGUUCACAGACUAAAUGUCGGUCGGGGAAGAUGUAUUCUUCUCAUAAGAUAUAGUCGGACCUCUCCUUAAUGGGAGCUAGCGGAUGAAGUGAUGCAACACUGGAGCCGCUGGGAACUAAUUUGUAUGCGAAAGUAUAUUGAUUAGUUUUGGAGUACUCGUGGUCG;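 further: selection with 25 µg/mL kanamycin versus none on LB agar overnight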
Details: 30 °C
Values of self-splicing fitness (ln) greater than or equal to -3 map to Yes; values below map to No.

Query: Please tell me: is the sequence AGGCAGCAAUAUUACGUUUU at or over -3 in terms of self-splicing fitness (ln)?
Response: Yes

Query: Does the sequence UGCCAGCAAUAUUACGAACG have recorded self-splicing fitness (ln) that is -3 or more?
Response: Yes

Query: Is reported self-splicing fitness (ln) greater than or equal to -3 here: UUACAGCAAUAUUACGACAC
Response: No

Query: Could you please find out whether GAGUAGCAAUAUUACGGAAA has self-splicing fitness (ln) that meets -3 or exceeds it?
Response: No

Query: Would you say GGACAGCAAUAUUACGGUUC shows self-splicing fitness (ln) at minimum -3?
Response: No

Query: Is it the case that CUCUAGCAAUAUUACGCCUU has self-splicing fitness (ln) reaching or exceeding -3?
Response: Yes

Query: Is it the case that CGGCAGCAAUAUUACGACCG has self-splicing fitness (ln) reaching or exceeding -3?
Response: No

Query: Has UUUCAGCAAUAUUACGCUGU a recorded self-splicing fitness (ln) greater than or equal to -3?
Response: No

Query: Does GUCCAGCAAUAUUACGUCGG have a reported self-splicing fitness (ln) of at least -3?
Response: No

Query: Evaluate CUGCAGCAAUAUUACGAGAG : self-splicing fitness (ln) at minimum -3?
Response: Yes

====

Experiment: self-splicing fitness, log relative to wild type (ln ratio); higher = more splicing; Tetrahymena group I intron in knt gene, E. coli kanamycin selection, DiMSum; sequences stand for … in CUCUCU…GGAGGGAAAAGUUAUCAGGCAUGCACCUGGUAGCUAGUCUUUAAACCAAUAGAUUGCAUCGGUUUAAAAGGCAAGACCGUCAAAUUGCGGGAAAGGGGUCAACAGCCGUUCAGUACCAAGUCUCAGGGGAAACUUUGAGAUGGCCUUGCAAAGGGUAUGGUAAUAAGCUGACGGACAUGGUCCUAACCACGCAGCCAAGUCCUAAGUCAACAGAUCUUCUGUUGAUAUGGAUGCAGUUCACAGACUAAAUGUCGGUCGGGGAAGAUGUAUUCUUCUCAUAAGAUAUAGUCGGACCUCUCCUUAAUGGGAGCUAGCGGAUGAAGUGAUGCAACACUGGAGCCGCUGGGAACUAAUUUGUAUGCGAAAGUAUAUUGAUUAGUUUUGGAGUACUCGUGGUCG
Conditions: 30 °C
Task for the reader: assign each of the following sequences its reported self-splicing fitness (ln).

Example entries and their recorded answers appear below.
INSERT INTO measurements (sequence_content, measure_name, assay_value) VALUES
  ('CGGAAGCAAUAUUACGAAUA', 'self-splicing fitness (ln)', -2.53),
  ('CCGUAGCAAUAUUACGUAAG', 'self-splicing fitness (ln)', 0.191),
  ('GAAGAGCAAUAUUACGUCUU', 'self-splicing fitness (ln)', -4.83),
  ('AUUGAGCAAUAUUACGUGUC', 'self-splicing fitness (ln)', -4.77),
  ('CGUCAGCAAUAUUACGCUAC', 'self-splicing fitness (ln)', -3.74),
  ('CCCGAGCAAUAUUACGAUUU', 'self-splicing fitness (ln)', -3.84),
  ('AGAUAGCAAUAUUACGCGCA', 'self-splicing fitness (ln)', -0.594),
  ('UCUAAGCAAUAUUACGGGUA', 'self-splicing fitness (ln)', -1.64),
  ('CUUCAGCAAUAUUACGCGGA', 'self-splicing fitness (ln)', -1.83),
  ('GACUAGCAAUAUUACGCUGC', 'self-splicing fitness (ln)', -3.53);

State recorded self-splicing fitness (ln) for all listed sequences.
1. UUAAAGCAAUAUUACGUGUA
2. GAUUAGCAAUAUUACGUGUA
3. GAUUAGCAAUAUUACGAUCA
4. GUAAAGCAAUAUUACGUUUU
5. ACAAAGCAAUAUUACGGUCG
6. ACUUAGCAAUAUUACGGUAC

Response:
1: -0.993; 2: -2.22; 3: -0.826; 4: -2.7; 5: -1.24; 6: -3.36

====

Consider the following sequences; for each one, report its self-splicing fitness (ln).
Assay: self-splicing fitness, log relative to wild type (ln ratio); higher = more splicing; Tetrahymena group I intron in knt gene, E. coli kanamycin selection, DiMSum; sequences stand for … in CUCUCU…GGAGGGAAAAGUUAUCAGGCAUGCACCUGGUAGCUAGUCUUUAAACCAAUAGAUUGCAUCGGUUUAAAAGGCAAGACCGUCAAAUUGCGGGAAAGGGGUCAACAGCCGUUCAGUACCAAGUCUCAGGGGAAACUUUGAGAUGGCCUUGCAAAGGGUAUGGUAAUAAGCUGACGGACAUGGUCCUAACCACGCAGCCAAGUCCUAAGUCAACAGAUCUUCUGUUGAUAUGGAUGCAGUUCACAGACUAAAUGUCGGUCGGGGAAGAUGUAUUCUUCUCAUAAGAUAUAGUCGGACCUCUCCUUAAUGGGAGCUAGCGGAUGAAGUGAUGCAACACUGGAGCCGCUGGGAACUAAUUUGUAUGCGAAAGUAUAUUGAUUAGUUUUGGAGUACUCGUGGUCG
Conditions: 37 °C
Numbers only.

INSERT INTO measurements (sequence_content, measure_name, assay_value) VALUES
  ('CCAGAGCAAUAUUACGGCCC', 'self-splicing fitness (ln)', -1.44);

Answer for every listed entry: what is its self-splicing fitness (ln)? The entries follow.
1. CGCGAGCAAUAUUACGGCAU
2. GCUCAGCAAUAUUACGUUCC
3. UUAUAGCAAUAUUACGUUGG
4. CUCAAGCAAUAUUACGGCGG
5. GCCCAGCAAUAUUACGGGCG
6. CAUCAGCAAUAUUACGACGA
7. UAAAAGCAAUAUUACGUUUC

Response:
1. -1.43
2. -0.507
3. -1.86
4. -1.65
5. -1.7
6. -0.863
7. -2.36

Here are 3 sequences. What values of self-splicing fitness (ln) were reported for them?
1. CAUGAGCAAUAUUACGGUUG
2. CCAAAGCAAUAUUACGUGCC
3. AUGCAGCAAUAUUACGGGAG

Response:
[-0.986, -2.31, -2.11]

Give self-splicing fitness (ln) for all sequences that follow.
1. GAUUAGCAAUAUUACGACCU
2. AACUAGCAAUAUUACGUAAC
3. AGGUAGCAAUAUUACGUUAA
4. CUACAGCAAUAUUACGCAGU
5. UUCAAGCAAUAUUACGCUUU

Response:
1. -0.777
2. -1.5
3. -1.91
4. -2.32
5. -2.37

====

Assay: self-splicing fitness, log relative to wild type (ln ratio); higher = more splicing; Tetrahymena group I intron in knt gene, E. coli kanamycin selection, DiMSum; sequences stand for … in CUCUCU…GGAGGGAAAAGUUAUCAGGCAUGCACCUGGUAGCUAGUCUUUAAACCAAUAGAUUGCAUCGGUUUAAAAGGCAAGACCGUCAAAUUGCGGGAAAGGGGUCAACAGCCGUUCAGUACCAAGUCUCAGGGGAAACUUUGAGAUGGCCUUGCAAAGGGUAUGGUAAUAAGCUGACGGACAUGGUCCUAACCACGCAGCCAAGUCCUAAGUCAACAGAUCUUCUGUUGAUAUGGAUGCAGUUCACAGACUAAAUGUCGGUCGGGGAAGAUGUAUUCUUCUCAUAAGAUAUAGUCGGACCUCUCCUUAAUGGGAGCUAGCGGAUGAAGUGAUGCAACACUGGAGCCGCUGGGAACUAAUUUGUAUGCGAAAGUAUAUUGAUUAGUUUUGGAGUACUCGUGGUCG
Conditions: 30 °C
measure-name: self-splicing fitness (ln)
Numbers only.

INSERT INTO measurements (sequence_content, measure_name, assay_value) VALUES
  ('GGAGAGCAAUAUUACGAGGC', 'self-splicing fitness (ln)', -2.83);

Count: 5. Required value per item: self-splicing fitness (ln).
1. UUGCAGCAAUAUUACGCAUA
2. AAUCAGCAAUAUUACGCCAG
3. ACCAAGCAAUAUUACGGGCG
4. UUAUAGCAAUAUUACGUUGC
5. CAAUAGCAAUAUUACGUUCA

Response:
1: -1.6; 2: -0.398; 3: -0.824; 4: -3.27; 5: -3.43

Hi team, please reply with self-splicing fitness (ln) for each item in this list.
1. UCGAAGCAAUAUUACGGACC
2. AAAAAGCAAUAUUACGUCAC
3. UCCGAGCAAUAUUACGUGUA
4. CGUGAGCAAUAUUACGGCUC

Response:
-3.46
-4.29
-2.55
-3.79

// input: 8 sequences below; output: self-splicing fitness (ln) for each
1. CACAAGCAAUAUUACGGGUU
2. GCCAAGCAAUAUUACGCACG
3. AAGAAGCAAUAUUACGUCAU
4. UUAUAGCAAUAUUACGGUUG
5. UCCAAGCAAUAUUACGGACU
6. CCUAAGCAAUAUUACGCGCA
7. AAAAAGCAAUAUUACGACCA
8. AGACAGCAAUAUUACGACGU

Response:
1: -2.26; 2: -2.84; 3: -1.81; 4: -1.32; 5: -3.5; 6: -3.25; 7: -0.0993; 8: 0.00817
